Test system: IGROV-1
ASSAY OVERVIEW: NCI tumour cell line growth inhibition, 48 h
Active and inactive are the calls of the source. No stated cut-off is given here; in the data, active = GI50 up to about 1.1 µM and inactive = higher.
Your answer must be one of the following: active, inactive

{"MOLECULE": "Cc1nc(C)c(N2CCN(Cc3ccccc3)CC2)c(O)n1", "GROUP": "inactive"}

Q) Name the outcome recorded for `COc1cc(C(=O)N(C)N(C)C)cc(OC)c1OC` in the assay.
A) inactive

Q) Now the molecule `C[C@H]1CCC/C=C/[C@@H]2C[C@H](OC(=O)CN(C)C)C[C@H]2[C@H](O)/C=C/C(=O)O1`
A) active

Q) Now the molecule CCOC(=O)C1C(=O)CC(C)(O)C(C(=O)OCC)C1c1ccc(OC)cc1 (stereo unspecified)
A) inactive

Q) Now the molecule CC(C)C(NC(=O)C(Cc1ccccc1)NC(=O)[C@H]1CCC[C@H]1NC(=O)C(N)Cc1ccc(O)cc1)C(N)=O (stereo partly specified)
A) inactive

Q) Now the molecule CC1=CCC(C(C)(C)NC(=O)c2ccccc2)C/C1=N/O (stereo unspecified)
A) inactive

Q) Now the molecule `COc1ccccc1/C=C/c1nc2ccccc2o1`
A) inactive

Q) Now the molecule COc1cc(C2S/C(=C/c3ccccc3)C(=O)N2c2ccc(Cl)cc2)cc(OC)c1OC (stereo unspecified)
A) inactive

Q) Now the molecule `CC1(C)Cc2c(c3ccccc3c3nc4c(nc23)c2c(c3ccccc34)OC(C)(C)C2)O1`
A) inactive

###

Tested on: NCI-H522
ASSAY OVERVIEW: NCI tumour cell line growth inhibition, 48 h
Active and inactive are the calls of the source. No stated cut-off is given here; in the data, active = GI50 up to about 1.1 µM and inactive = higher.
Your answer must be one of the following: active, inactive

{"COMPOUND": "CCCn1c(C23CC4CC(CC(C4)C2)C3)nc2ccc(Cl)cc2c1=O", "GROUP": "inactive"}
{"COMPOUND": "CSc1ncc2c(n1)C(C#N)C1Sc3ccccc3N1C2=O (stereo not drawn)", "GROUP": "inactive"}

Q) Name the outcome recorded for `CCC(=O)N/N=C(\C=C\c1cccc(O)c1)c1sc(Nc2ccc(C)cc2[N+](=O)[O-])nc1C` in the assay.
A) inactive

Q) Now the compound COC(=O)C(C(=O)C(=O)Nc1nnc(S)[nH]1)c1csc(N)n1 (stereo not drawn)
A) inactive

Q) Now the compound COC(=O)C1=C(C(=O)OC)C2OC1C1C2C2(C)C(C)=C(C)C1(C)[S+]2[O-] (stereo not drawn)
A) inactive

Q) Now the compound `COc1ccccc1/C=C/c1nc2ccccc2o1`
A) inactive

Q) Now the compound `N#CC(C#N)=C1C(=Cc2ccc(OCCCCCCCCCCSSCCCCCCCCCCOc3ccc(C=C4C(=C(C#N)C#N)c5ccccc5C4=C(C#N)C#N)cc3)cc2)C(=C(C#N)C#N)c2ccccc21`
A) inactive

###

Test system: UACC-257
ASSAY OVERVIEW: NCI tumour cell line growth inhibition, 48 h
The source made the active and inactive calls. Rule as the data show it: active = GI50 up to about 1.1 µM and inactive = higher.
QUANTITY: GI50

{"COMPOUND": "CC(=O)OCCCCn1cnc2nc(Nc3ccccc3)nc(Cl)c21", "QUANTITY": "GI50", "TEST VALUE": "58.7 µM (inactive)"}
{"COMPOUND": "CC1CNC(c2ccc(-c3nc(-c4ccc(C5=NC(C)CN5)cc4)nc(N(C)C)n3)cc2)=N1 (stereo not given)", "QUANTITY": "GI50", "TEST VALUE": "3.08 µM (inactive)"}
{"COMPOUND": "CCOc1ccc(NC(=O)CC2SC(Nc3ccc(C)cc3C)=NC2=O)cc1 (stereo not given)", "QUANTITY": "GI50", "TEST VALUE": "85.7 µM (inactive)"}
{"COMPOUND": "CCOC(=O)c1cc2c3c(c(C(C)=O)c(O)c2[nH]1)N(CC(C)CC)CC3 (stereo not given)", "QUANTITY": "GI50", "TEST VALUE": "68.7 µM (inactive)"}

Moving on to the next compound.
Q) So what does the record say about GI50 for `O=c1oc(-c2ccc(O)cc2)cc2cc(O)ccc12` ?
A) 52 µM (inactive)

###

GI50 values by entry
Tested on: K562
ASSAY OVERVIEW: NCI tumour cell line growth inhibition, 48 h
The source made the active and inactive calls. No stated cut-off is given here; in the data, active = GI50 up to about 1.1 µM and inactive = higher.

{"MOLECULE": "NC(=O)NNC(=O)c1nc[nH]c1[N+](=O)[O-]", "TESTED TARGET": "K562", "GI50": "> 100 µM (inactive)"}
{"MOLECULE": "CCOC(=O)NC(=O)c1cn(C2OC(COC(=O)CCCCCCCCC(=O)OCC3OC(n4cc(C(=O)NC(=O)OCC)c(=O)[nH]c4=O)C4OC(C)(C)OC34)C3OC(C)(C)OC32)c(=O)[nH]c1=O (stereo unspecified)", "TESTED TARGET": "K562", "GI50": "40.8 µM (inactive)"}
{"MOLECULE": "O=C(O)c1cc(C(=O)C(=O)c2cc(C(=O)O)c(O)c3ccccc23)c2ccccc2c1O", "TESTED TARGET": "K562", "GI50": "> 100 µM (inactive)"}
{"MOLECULE": "BrC1=C(Br)C2(SCCS2)[C@H]2C[C@@H]1c1ccccc12", "TESTED TARGET": "K562", "GI50": "9.12 µM (inactive)"}
{"MOLECULE": "O=C1OCC(O)=C1C(c1ccc(Cl)cc1)c1cc2c(cc1O)OCO2 (stereo unspecified)", "TESTED TARGET": "K562", "GI50": "> 100 µM (inactive)"}

Q) So what does the record say about GI50 for `C(=N/c1ccccc1C1SCCCS1)/c1ccccc1` ?
A) > 100 µM (inactive)

Q) Now the molecule `CCOC(=O)NC(=O)c1cn(-c2ccc(CCOC(=O)NCCCCCCNC(=O)OCCc3ccc(-n4c(=O)[nH]cc(C(=O)NC(=O)OCC)c4=O)cc3)cc2)c(=O)[nH]c1=O`
A) > 100 µM (inactive)

Q) Now the molecule `Cc1cc(C)nc(NS(=O)(=O)c2ccc(NC(=O)c3c4ccccc4nc4ccccc34)cc2)n1`
A) > 100 µM (inactive)

###

System: UO-31
ASSAY OVERVIEW: NCI tumour cell line growth inhibition, 48 h
Calls of active or inactive are those of the source. Cut-off read from the data, not from the text of the source: active = GI50 up to about 1.1 µM and inactive = higher.
QUANTITY: GI50

For orientation, consider the following solved cases.
{"MOLECULE": "O=[N+]([O-])c1ccc(/C=N/C2CCCCC2)cc1", "GI50": "> 100 µM (inactive)"}
{"MOLECULE": "BrC1=C(Br)C2(SCCS2)[C@H]2C[C@@H]1c1ccccc12", "GI50": "29.4 µM (inactive)"}

Q) So what does the record say about GI50 for CCN1CCC(O)(/C=C/c2ccccc2C)C(C(=O)/C=C/c2ccccc2C)C1 (configuration not stated) ?
A) 1.63 µM (inactive)

Q) Now the molecule c1ccc(N/N=C2\CC(c3ccccc3)Oc3ccccc32)cc1 (configuration not stated)
A) 22.1 µM (inactive)

Q) Now the molecule CN1c2ccc(Cl)cc2C(=O)NC1c1ccc([N+](=O)[O-])s1 (configuration not stated)
A) 12.1 µM (inactive)

Q) Now the molecule `CCC(=O)Nc1ccc(N2C(=O)/C(=C/c3ccc(O)c(OC)c3)N=C2c2ccccc2)cc1`
A) 25.5 µM (inactive)

Q) Now the molecule COc1ccc(C(SC2C(O)C(CO)OC2n2ccc(N)nc2=O)(c2ccccc2)c2ccc(OC)cc2)cc1 (configuration not stated)
A) 18.5 µM (inactive)

Q) Now the molecule `Cc1cc(NC2=CC(=O)C(=O)c3ccccc32)no1`
A) 7.94 µM (inactive)

Q) Now the molecule CC1CNC(c2ccc(-c3nc(-c4ccc(C5=NC(C)CN5)cc4)nc(N(C)C)n3)cc2)=N1 (configuration not stated)
A) 7.33 µM (inactive)

Q) Now the molecule `CO[C@@]12CC(=O)/C(=C(O)\C=C\c3ccccc3)C(=O)[C@]1(OC)Cc1ccccc1O2`
A) 40 µM (inactive)

Q) Now the molecule `COc1ccc2c(c1)c1c3n2CCNN=C3CCC1`
A) > 43.7 µM (inactive)

Q) Now the molecule `c1cncc(-c2cc(-c3cc(-c4cccnc4)[nH]n3)n[nH]2)c1`
A) > 100 µM (inactive)

###

Tested on: OVCAR-3
ASSAY OVERVIEW: NCI tumour cell line growth inhibition, 48 h
Calls of active or inactive are those of the source. Cut-off read from the data, not from the text of the source: active = GI50 up to about 1.1 µM and inactive = higher.
QUANTITY: GI50

For orientation, consider the following solved cases.
{"COMPOUND": "CCC12C=CCN3CCC4(c5cc(C6(C(=O)OC)CCCCCc7c6[nH]c6ccccc76)c(OC)cc5N(C)C4C(O)(C(=O)OC)C1OC(C)=O)C32 (stereo not given)", "GI50": "3.83 µM (inactive)"}
{"COMPOUND": "CCNC1C2(CCCCC2)NC(=O)C12CCCCC2 (stereo not given)", "GI50": "> 100 µM (inactive)"}
{"COMPOUND": "CCOc1ccccc1NC(=O)C(=O)C1C(=O)Nc2ccccc2[S+]1[O-] (stereo not given)", "GI50": "> 100 µM (inactive)"}
{"COMPOUND": "COc1ccc2nc(N/N=C/c3sccc3C)cc(C)c2c1", "GI50": "18.8 µM (inactive)"}

Q) So what does the record say about GI50 for `O=C(/N=N/c1ccc([N+](=O)[O-])cc1)NNc1ccc([N+](=O)[O-])cc1` ?
A) 20.5 µM (inactive)
